Measured growth by item
Test system: SR leukemia
Assay: NCI-60 one-dose screen, 48 h (100 = growth as untreated, 0 = no growth, -100 = all killed)
Conditions: 10 µM unless noted
Compounds without any hit were thinned out: in the full panel of roughly 83,000, 20% have a hit.

compound	unit_annotation	growth
CCOC(=O)c1c(NC(=O)c2ccc(OC)cc2)sc2c(CN(C)C)c(O)ccc12	%	-21.5
Cn1c(=O)c2c(nc(NC3=NS(=O)(=O)c4ccccc43)n2Cc2ccccc2)n(C)c1=O	%	108
Nc1n[nH]c2ccc([C@@H]3Nc4cc5[nH]ncc5cc4[C@H]4C5CCC(C5)[C@@H]34)cc12 (stereo not given in full)	%	20
COc1cc(-c2nc3ccc(C)cc3[nH]2)ccc1OCC(=O)N=Nc1c(O)[nH]c2ccc(Cl)cc12	%	-32.8
COc1ccc(C2C3=C(COC3=O)N(CCO)c3cc4c(cc32)OCCO4)cc1OC (stereo not given)	%	16.8
CCN(CC)CCN(CCN(CC)CC)c1ccccc1	%	111
CC(/C=C1\SC(=S)N(CC(=O)NC(Cc2c[nH]c3ccccc23)C(=O)O)C1=O)=C\c1ccccc1 (stereo not given)	%	108
C[N+](C)(C/C=C/c1ccccc1)Cc1ccccc1	%	97.7
Cc1ccc(C)n1/C=C/n1c(C)ccc1C	%	122
COc1ccc2c(c1)c(-c1cc(-c3cn(C)c4ccc(OC)cc34)on1)cn2C	%	104
